B1: Twister Ribozyme (parent)
chain: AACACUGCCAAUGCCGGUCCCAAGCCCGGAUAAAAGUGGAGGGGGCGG

Variants of: B1
experimental-protocol: self-cleavage, relative activity (ratio to wild type); higher = more cleavage; co-transcriptional

{"columns": ["residue-sequence", "self-cleavage"],
 "data": [
  ["AACACUGCCAAUGCCGUUCCCAAGCCCGGAUAAAAGUGAAGGGGGCGG [G17U G39A]", 0.119],
  ["AACACUGCCAAUGCCGGUCCCAAGCCCGGAUACAAGUGGGGGGGGCGG [A33C A40G]", 0.182],
  ["UACACUGCCAAUGCCGGUCCCAAGCCCGGAUAAAAGCGGAGGGGGCGG [A1U U37C]", 0.0822],
  ["AACACUGCCAAUGUCGGUCCCAAGCCCGGAUAAAAGUCGAGGGGGCGG [C14U G38C]", 0.909],
  ["AACACUGCCAAUGCCGGUCCCAAGCCCGGAUAAAAGUGGAGUGUGCGG [G42U G44U]", 0.196],
  ["AACACUGCCAAUCCCGGUCCCAAGCCCGGAUAAAAGUGGAGGGAGCGG [G13C G44A]", 0.584],
  ["AACACUGCCAAUGCCGGUCCCCAGCCCGGAUAAAAGUUGAGGGGGCGG [A22C G38U]", 0.782],
  ["AACACUGCCAAUGACGGUCCCAAGCCCGGAUGAAAGUGGAGGGGGCGG [C14A A32G]", 0.857],
  ["AACACUGCCAAUGCCGGUCCCAAGCCAGGAUAAAAGUGCAGGGGGCGG [C27A G39C]", 0.0948],
  ["AACACUGCCAAUGCCGAUCCCAAGUCCGGAUAAAAGUGGAGGGGGCGG [G17A C25U]", 0.255],
  ["ACCACUGCCAAUGGCGGUCCCAAGCCCGGAUAAAAGUGGAGGGGGCGG [A2C C14G]", 0.0512],
  ["AACACUGCCAAUGCCGGUCCCAAGCACGGAUAAAAAUGGAGGGGGCGG [C26A G36A]", 0.0875],
  ["AACACUGCCAAUGCCGGUCCCAAGCACGGAUAAAGGUGGAGGGGGCGG [C26A A35G]", 0.219],
  ["AACACUGCCAAUGCCGGUCCCAAGCCGGGAUAAAAGUGGACGGGGCGG [C27G G41C]", 0.0915],
  ["AACACUGCCAAUGCCGAUCCCAAGCCCGGAUAAAAGUCGAGGGGGCGG [G17A G38C]", 0.54],
  ["AUCACUGCCAAUGCCGGUCCCAAGCCCGGAUAAAAGUGGAGGGAGCGG [A2U G44A]", 0.615],
  ["AACACUGCCAAUGGCGGUCCCAAGCCCGGAUAAAAGUGGAGGGCGCGG [C14G G44C]", 0.129],
  ["AACACUGCCAAUGCCGAUCCCAAGCCCGGUUAAAAGUGGAGGGGGCGG [G17A A30U]", 0.695],
  ["AACACUGCCAAUGCCGGUCCCAAGCCCGGAUGAAAGUGGCGGGGGCGG [A32G A40C]", 0.226],
  ["AACACUGCCAAUGCCGGUCCGAAGCCCGGAUAAAAGUGGAGGAGGCGG [C21G G43A]", 0.0243],
  ["AAUACUGCCAAUGCCGCUCCCAAGCCCGGAUAAAAGUGGAGGGGGCGG [C3U G17C]", 0.0683],
  ["AACACCGCCAAUGCCGGUCCCAAGCCCGGAUAAAAGUGGAGGUGGCGG [U6C G43U]", 0.134]
]}
